Test system: Escherichia coli TOP10
procedureDetails: shrunken log2 fold change of peptide-encoding DNA abundance (4.5 h post-induction vs induction); higher = less antimicrobial activity (less host growth inhibition)
conditionsUsed: time post-induction: 4.5 h; library: site-saturation at positions 5, 18, 19, 20
Recorded shrunken log2 fold change split into classes lo: < -0.2; mid: ≥ -0.2 and < -0.0008; hi: ≥ -0.0008

Tag the class for `RRIRERPPRLPRPRPRPCQWPRP`
mid

Repeat with `RRIRIRPPRLPRPRPRPLMAPRP`
lo

Follow-up entry: `RRIRLRPPRLPRPRPRPYLEPRP`
mid

Do the same for `RRIRIRPPRLPRPRPRPWVSPRP` please
mid

Consider next the sequence `RRIRYRPPRLPRPRPRPKTNPRP` in the same way.
lo

Next sequence: `RRIRWRPPRLPRPRPRPTSWPRP`
hi

Repeat with `RRIRERPPRLPRPRPRPQNDPRP`
lo

Now try `RRIRMRPPRLPRPRPRPMKYPRP` .
hi

// next record `RRIRGRPPRLPRPRPRPAKIPRP`
hi

And what about the sequence `RRIRTRPPRLPRPRPRPNDQPRP` ?
lo

Can you check `RRIRVRPPRLPRPRPRPCPSPRP` next?
mid

###

Test system: Escherichia coli TOP10
procedureDetails: shrunken log2 fold change of peptide-encoding DNA abundance (4.5 h post-induction vs induction); higher = less antimicrobial activity (less host growth inhibition)
conditionsUsed: time post-induction: 4.5 h; library: site-saturation at positions 5, 18, 19, 20
# cutoff 0.07 applies to shrunken log2 fold change; >= gives criterion met, < gives criterion not met

Record `RRIRDRPPRLPRPRPRPVPAPRP` ; criterion: shrunken log2 fold change no lower than 0.07. Met?
criterion met

Note, next up: `RRIRVRPPRLPRPRPRPKSHPRP`
criterion met

Queued: `RRIRGRPPRLPRPRPRPTGPPRP`
criterion met

Repeat with `RRIRKRPPRLPRPRPRPTFEPRP`
criterion met

Could you do the same for `RRIRGRPPRLPRPRPRPETYPRP` , please?
criterion met

One more sequence: `RRIRPRPPRLPRPRPRPPGGPRP`
criterion met

Try the sequence `RRIRTRPPRLPRPRPRPLTVPRP`
criterion not met

What do we get for `RRIRYRPPRLPRPRPRPFIWPRP` ?
criterion not met

// same read-out, input: `RRIRARPPRLPRPRPRPWCRPRP`
criterion not met

Please give the result for `RRIRCRPPRLPRPRPRPWRYPRP` too.
criterion not met

// repeat for `RRIRFRPPRLPRPRPRPYTAPRP` and report
criterion not met

Now consider `RRIRARPPRLPRPRPRPIILPRP` and answer again.
criterion not met

Likewise for `RRIRDRPPRLPRPRPRPPKRPRP` ?
criterion not met

Another sequence to look at: `RRIRYRPPRLPRPRPRPIKLPRP`
criterion not met

Next sequence up: `RRIRHRPPRLPRPRPRPMLVPRP`
criterion not met

Please answer likewise for `RRIRYRPPRLPRPRPRPWHEPRP`
criterion not met

Repeat with `RRIRRRPPRLPRPRPRPEIGPRP`
criterion met

How about `RRIRERPPRLPRPRPRPIYAPRP` ?
criterion not met

Input `RRIRARPPRLPRPRPRPGQFPRP`
criterion met

Request: `RRIRWRPPRLPRPRPRPFAVPRP`
criterion met

Can you handle `RRIRWRPPRLPRPRPRPIRAPRP` next?
criterion not met

Also check `RRIRTRPPRLPRPRPRPSIHPRP`
criterion not met

Request: `RRIRIRPPRLPRPRPRPMCYPRP`
criterion not met

Continue with `RRIRWRPPRLPRPRPRPSGIPRP`
criterion met

What would you report for `RRIRSRPPRLPRPRPRPQDRPRP` ?
criterion not met

Likewise for `RRIRERPPRLPRPRPRPEMRPRP` ?
criterion met

Now the sequence `RRIRFRPPRLPRPRPRPCHDPRP`
criterion met

Could you do the same for `RRIRGRPPRLPRPRPRPMCFPRP` , please?
criterion met

// next record `RRIRSRPPRLPRPRPRPSWEPRP`
criterion met

What about this sequence? `RRIRRRPPRLPRPRPRPVKAPRP`
criterion met

Here is the next sequence: `RRIRPRPPRLPRPRPRPGKAPRP`
criterion met

What do we get for `RRIRYRPPRLPRPRPRPLEDPRP` ?
criterion not met

// same read-out, input: `RRIRSRPPRLPRPRPRPINVPRP`
criterion not met

Now give it for `RRIRGRPPRLPRPRPRPYTEPRP` too.
criterion not met

Try `RRIRFRPPRLPRPRPRPYWQPRP` next.
criterion not met

Entry to check: `RRIRSRPPRLPRPRPRPWLGPRP`
criterion not met

Further, for `RRIRQRPPRLPRPRPRPRDIPRP` ?
criterion not met

Please do the same for `RRIRSRPPRLPRPRPRPYQTPRP` as well.
criterion not met

Do the same for `RRIRTRPPRLPRPRPRPPSPPRP` please
criterion met

Please answer likewise for `RRIRWRPPRLPRPRPRPNSGPRP`
criterion not met

Same read-out for `RRIRMRPPRLPRPRPRPNVKPRP` ?
criterion not met

// repeat for `RRIRMRPPRLPRPRPRPSLPPRP` and report
criterion not met

Try this sequence next: `RRIRKRPPRLPRPRPRPITSPRP`
criterion met

How about this sequence: `RRIRCRPPRLPRPRPRPMFKPRP`
criterion not met

Another sequence to check: `RRIRDRPPRLPRPRPRPKILPRP`
criterion not met

Same question, `RRIRQRPPRLPRPRPRPDPIPRP` this time
criterion not met

Entry `RRIRWRPPRLPRPRPRPIHIPRP` please
criterion not met

Also need `RRIRMRPPRLPRPRPRPMYGPRP` , thanks.
criterion not met

Next entry: `RRIRDRPPRLPRPRPRPCWAPRP`
criterion met

###

Test system: Escherichia coli TOP10
procedureDetails: shrunken log2 fold change of peptide-encoding DNA abundance (4.5 h post-induction vs induction); higher = less antimicrobial activity (less host growth inhibition)
conditionsUsed: time post-induction: 4.5 h; library: site-saturation at positions 5, 18, 19, 20
endpointLabel: shrunken log2 fold change
# answer = number (no unit)

What value of shrunken log2 fold change has been reported for the following sequence? `RRIRERPPRLPRPRPRPNQEPRP`
0.0174

Let us now turn to `RRIRKRPPRLPRPRPRPSHGPRP`
-0.216

Same lookup for `RRIRMRPPRLPRPRPRPMKNPRP` , please.
0.328

Further, for `RRIRKRPPRLPRPRPRPCCHPRP` ?
-1.07

// query: `RRIRHRPPRLPRPRPRPYDQPRP`
-0.291

// next record `RRIRWRPPRLPRPRPRPHPVPRP`
-0.0118

What would you report for `RRIRNRPPRLPRPRPRPKWNPRP` ?
-0.319

Record: `RRIRWRPPRLPRPRPRPRHRPRP`
0.138

Same again, this time with `RRIRMRPPRLPRPRPRPFSDPRP`
-0.0199

Now the sequence `RRIRHRPPRLPRPRPRPLRIPRP`
0.156

Entry `RRIRQRPPRLPRPRPRPSRAPRP` please
0.19

Entry `RRIRTRPPRLPRPRPRPQTTPRP` please
0.0779

Can you check `RRIRCRPPRLPRPRPRPMMNPRP` next?
-0.278

Another: `RRIRQRPPRLPRPRPRPFYTPRP`
-0.589

Continue with `RRIRQRPPRLPRPRPRPFNYPRP`
-0.304

Can you check `RRIRHRPPRLPRPRPRPNPSPRP` next?
-0.0145

Please answer likewise for `RRIRPRPPRLPRPRPRPNGEPRP`
0.137

Could you do the same for `RRIRLRPPRLPRPRPRPVPWPRP` , please?
0.0255

Same again, this time with `RRIRRRPPRLPRPRPRPCFCPRP`
0.104

Same question, `RRIRGRPPRLPRPRPRPCMDPRP` this time
0.714

And for `RRIRDRPPRLPRPRPRPRTTPRP` ?
0.0893

###

System: Escherichia coli TOP10;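 further: peptides expressed intracellularly from a pBAD plasmid library in pooled LB shake-flask culture, induced with 0.3% L-arabinose, DNA abundance read by NGS, three biological replicates, DESeq2 with apeglm shrinkage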
procedureDetails: shrunken log2 fold change of peptide-encoding DNA abundance (4.5 h post-induction vs induction); higher = less antimicrobial activity (less host growth inhibition)
conditionsUsed: time post-induction: 4.5 h; library: site-saturation at positions 5, 18, 19, 20
endpointLabel: shrunken log2 fold change
Could you respond with only the numeric value?

Need shrunken log2 fold change of `RRIRPRPPRLPRPRPRPKWCPRP` , thanks.
0.0741

Now the same for `RRIRFRPPRLPRPRPRPLIYPRP`
-0.898

Consider next the sequence `RRIRGRPPRLPRPRPRPMSVPRP` in the same way.
0.0559

Entry `RRIRRRPPRLPRPRPRPVFRPRP` please
0.226

Same thing, different sequence: `RRIRHRPPRLPRPRPRPYFVPRP`
-0.84

Also need `RRIRCRPPRLPRPRPRPDTPPRP` , thanks.
0.0764

Another sequence to check: `RRIRARPPRLPRPRPRPMKYPRP`
-0.157

Do the same for `RRIRRRPPRLPRPRPRPQQVPRP` please
-0.0275

// query: `RRIRIRPPRLPRPRPRPQHRPRP`
-0.116

Same for `RRIRQRPPRLPRPRPRPNQCPRP`
0.0304

# repeat for `RRIRHRPPRLPRPRPRPVPYPRP`
-0.246

Ok, now `RRIRPRPPRLPRPRPRPYIFPRP`
-0.984

Further, for `RRIRARPPRLPRPRPRPFGSPRP` ?
-0.0315

Item: `RRIRWRPPRLPRPRPRPSVLPRP`
-0.225

Lookup `RRIRPRPPRLPRPRPRPSMSPRP`
-0.409

Can you check `RRIRQRPPRLPRPRPRPGGYPRP` next?
0.144

Would you kindly repeat that for `RRIRVRPPRLPRPRPRPTQCPRP` ?
-0.0227

Try this sequence next: `RRIRCRPPRLPRPRPRPGMCPRP`
0.125

Okay, and `RRIRPRPPRLPRPRPRPCSDPRP` ?
-0.131

And the next one, `RRIRNRPPRLPRPRPRPGDLPRP` ?
0.107
